Sourced from PubChem BioAssay AID1963866

system: PDC KRAS tumor spheroids with HUVEC/MSC, viability; assay: Anticancer human tumor 349418-098-R-PDC patient-derived lung adenocarcinoma cell line growth inhibition [KRAS2]; details: curve of compound
// values below are reported IC50

Give the reported value of IC50 for this record: CC1OCC2(CCN(c3cnc(Sc4ccnc(N)c4Cl)c(N)n3)CC2)C1N (configuration not stated) > 10000 nM

---

Listing: viability, T/C of selected compounds
test system: PDC KRAS tumor spheroids with HUVEC/MSC, viability; assay: Anticancer human tumor 349418-098-R-PDC cell line growth inhibition [KRAS2]; details: second compound 10 µM; first compound 0.00316 µM; stronger effect = lower value;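 also: spheroids exposed to compounds for seven days before readout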
Give the number; % is assumed, so skip it.

compound	reportedProperty	measurement
CN(C)C/C=C/C(=O)Nc1cc2c(Nc3ccc(F)c(Cl)c3)ncnc2cc1O[C@H]1CCOC1 + CC1OCC2(CCN(c3cnc(Sc4ccnc(N)c4Cl)c(N)n3)CC2)C1N	viability, T/C	108
CN(C)C/C=C/C(=O)Nc1cc2c(Nc3ccc(F)c(Cl)c3)ncnc2cc1O[C@H]1CCOC1 + COc1cc2nc(C)nc(NC(C)c3cc(N)cc(C(F)(F)F)c3)c2cc1OC1CCOC1	viability, T/C	73.2
CC(C)n1nc(-c2ccc3oc(N)nc3c2)c2c(N)ncnc21 + CNCc1ccccc1-c1csc(C(C)Nc2nc(C)nc3cc(OC)c(OC)cc23)c1	viability, T/C	0.07

Give the value of viability, T/C reported for the following: Cn1ncnc1[C@H]1c2n[nH]c(=O)c3cc(F)cc(c23)N[C@@H]1c1ccc(F)cc1 + COc1cc2nc(C)nc(NC(C)c3cc(N)cc(C(F)(F)F)c3)c2cc1OC1CCOC1 23

Supply recorded viability, T/C for CCN1CCN(Cc2ccc(Nc3ncc(F)c(-c4cc(F)c5nc(C)n(C(C)C)c5c4)n3)nc2)CC1 + C=CC(=O)N1CCN(c2nc(=O)n(-c3c(C)ccnc3C(C)C)c3nc(-c4c(O)cccc4F)c(F)cc23)C(C)C1 here. 25.3

---

tested on: PDC KRAS tumor spheroids with HUVEC/MSC, viability; assay: Anticancer human tumor 349418-098-R-PDC cell line growth inhibition [KRAS2]; settings: second compound 0.1 µM; first compound 0.0001 µM; stronger effect = lower value;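 also: spheroids exposed to compounds for seven days before readout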
Quick rule for you: viability, T/C under 30% gets true, anything else gets false.

compound	label
CC(=O)Nc1cccc(-n2c(=O)n(C3CC3)c(=O)c3c(Nc4ccc(I)cc4F)n(C)c(=O)c(C)c32)c1 + C=CC(=O)N1CCN(c2nc(OCC3CCCN3C)nc3c2CCN(c2cccc4cccc(C)c24)C3)CC1CC#N	false
CC(=O)Nc1cccc(-n2c(=O)n(C3CC3)c(=O)c3c(Nc4ccc(I)cc4F)n(C)c(=O)c(C)c32)c1 + COc1cc2nc(C)nc(NC(C)c3cc(N)cc(C(F)(F)F)c3)c2cc1OC1CCOC1	true
CC(=O)Nc1cccc(-n2c(=O)n(C3CC3)c(=O)c3c(Nc4ccc(I)cc4F)n(C)c(=O)c(C)c32)c1 + CC1OCC2(CCN(c3cnc(Sc4ccnc(N)c4Cl)c(N)n3)CC2)C1N	true

viability, T/C under 30%? Item: CC(=O)Nc1cccc(-n2c(=O)n(C3CC3)c(=O)c3c(Nc4ccc(I)cc4F)n(C)c(=O)c(C)c32)c1 + C=CC(=O)N1CCN(c2nc(=O)n(-c3c(C)ccnc3C(C)C)c3nc(-c4c(O)cccc4F)c(F)cc23)C(C)C1 false

viability, T/C strictly < 30% for this compound? CC(=O)Nc1cccc(-n2c(=O)n(C3CC3)c(=O)c3c(Nc4ccc(I)cc4F)n(C)c(=O)c(C)c32)c1 + CNCc1ccccc1-c1csc(C(C)Nc2nc(C)nc3cc(OC)c(OC)cc23)c1 true
